Target: T1, monomeric cynomolgus monkey CSF1R ectodomain protein (cynomolgus monkey, UniProt P07333 20-517 (human entry))
T1 construct: also called monomeric cyno CSF1R; Cyno CSF1R
T1 chain: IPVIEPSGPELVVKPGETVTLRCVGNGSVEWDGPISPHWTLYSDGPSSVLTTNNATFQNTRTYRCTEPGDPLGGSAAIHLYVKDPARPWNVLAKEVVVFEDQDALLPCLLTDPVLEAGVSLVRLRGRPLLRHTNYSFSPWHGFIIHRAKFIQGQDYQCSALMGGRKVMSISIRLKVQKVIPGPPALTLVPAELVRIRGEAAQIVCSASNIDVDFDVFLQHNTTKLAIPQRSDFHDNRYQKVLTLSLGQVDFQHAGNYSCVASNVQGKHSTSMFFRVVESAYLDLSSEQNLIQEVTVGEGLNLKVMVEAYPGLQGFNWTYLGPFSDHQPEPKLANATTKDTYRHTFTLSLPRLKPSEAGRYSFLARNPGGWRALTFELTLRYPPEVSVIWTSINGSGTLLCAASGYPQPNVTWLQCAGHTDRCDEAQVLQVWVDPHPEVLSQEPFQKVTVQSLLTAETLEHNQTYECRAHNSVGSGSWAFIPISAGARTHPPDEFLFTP
Assay: SPR Biacore, IgG captured, monomeric CSF1R analyte
Measured pKd of individual entries
Please keep in mind that pKd is minus log10 of the molar concentration; only the number is needed.

Binder	pKd
MH32 (antibody, human IgG4, V domains shown, Deimmunized MH5 derivative, human IgG4(S228P)/Ckappa IgG; also called MN32) VH: QVQLVQSGAEVKKPGSSVKVSCKASGYTFSSAYMIWVRQAPGQGLEWMGDINPYNGGANYAQKFQGRVTITADESTSTAYMELSSLRSEDTAVYYCAREGPYFSNLYVMDYWGRGTLVTVSS VL: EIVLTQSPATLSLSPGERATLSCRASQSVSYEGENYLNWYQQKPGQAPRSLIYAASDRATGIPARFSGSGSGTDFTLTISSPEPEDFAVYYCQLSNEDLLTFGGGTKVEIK	9.01

--- query ---
Indicate the recorded pKd value for this binder: MH29 (antibody, human IgG4, V domains shown, Deimmunized MH5 derivative, human IgG4(S228P)/Ckappa IgG) VH: QVQLVQSGAEVKKPGSSVKVSCKASGYTFSSNYMIWVRQAPGQGLEWMGDINPYNGGANYAQKFQGRVTITADESTSTAYMELSSLRSEDTAVYYCAREGPYFSNLYVMDYWGRGTLVTVSS VL: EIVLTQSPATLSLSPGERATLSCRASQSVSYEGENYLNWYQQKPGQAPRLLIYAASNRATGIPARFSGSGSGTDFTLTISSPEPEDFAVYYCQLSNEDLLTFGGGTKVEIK
9.04

Hello, the source for this data is patent US20210301026A1, in case you need it.
